compounds and their reported melting point

Bench note: what melting point did Cn1c(=O)c2c(c3ccccc31)c1cc(Cl)ccc1n2CCN show?
222 to 224 °C

Look at this compound and give its reported melting point. CCn1c(C)c(C(=O)c2nccnc2C(=O)O)c2ccccc21
212 to 213 °C

Item under review: C[C@]12CCC(=O)N[C@@H]1CCc1cc(Sc3cccc4ccccc34)ccc12 . Reported melting point?
199 to 201 °C

Need melting point, item COc1ccc(C(=O)c2sccc2OC)cc1
98 to 99 °C

What value of melting point has been recorded for this entry: CCCNC(=O)N1c2ccc(S(=O)(=O)n3cc(-c4ccccc4)[nH]c3=O)cc2CC1C (stereo not given)
138 °C

====

MEASUREMENT TYPE: melting point (°C)

CC1C(=O)N(c2ccc(F)cc2)C(=S)N1c1ccc(Oc2ccccc2)cc1 (centres undefined) :: 150

I: Cn1nc(C(F)(F)F)cc1Oc1nc(Oc2cc(C(F)(F)F)nn2C)c(F)c(Oc2cc(C(F)(F)F)nn2C)c1F
II: COc1cc(C)ccc1S(=O)(=O)NC(=O)C(c1ccc2c(c1)OCO2)c1cn(C)c2cc(C(=O)O)ccc12 (centres undefined)
Determine, for I and II , which has the greater value of melting point. Label of pick, please.
II

====

This listing pairs molecules with measured melting point.

Sample answers from the record:
CCCc1nn(C)c2c(=O)n(CCCc3ccc(OC(C)(C)C(=O)O)cc3)c(C)nc12 :: 104 to 106 °C
C=NC(c1cccc(Nc2n[nH]c3ncnc(Nc4cccc(Cl)c4)c23)c1)N(C)C (stereo not given) :: 175 to 177 °C
N#Cc1c(N2CCN(C(=O)c3ccco3)CC2)c2cc(F)ccc2n(Cc2ccc(F)cc2)c1=O :: 248 °C
N#Cc1[nH]ccc1-c1ccc(Cl)cc1 :: 114 to 115 °C

Consider now this further molecule.
Bench note: what melting point did [N-]=[N+]=Nc1cc(C2COCOC2)c2occc2c1 show?
102 to 104 °C

====

Attribute: melting point

Look over these answered cases.
O=C(Nc1cnc(N2CCCC2)cc1C(F)(F)F)c1cc2cc(C(F)(F)F)cnc2n1Cc1cccc(F)c1 :: 207 to 208 °C
Cc1cc(C(=O)N2Cc3ccc(C(=O)N(C)CC(O)CO)n3Cc3ccccc32)ccc1-c1ccccc1C(F)(F)F (centres undefined) :: 169 to 172 °C
Nc1cc(=O)n(Cc2c(Cl)cccc2Cl)[nH]1 :: 225 °C

Which melting point reading was recorded for the molecule Cn1cc(C2=C(c3c4n(c5ccccc35)CCC3(CCCC3NC(=O)OC(C)(C)C)C4)C(=O)OC2=O)c2ccccc21 (centres undefined) ?
123 to 125 °C

====

melting point values by entry

# annotated cases, reported melting point shown
C=CCNC(=O)N1C[C@@H](Oc2cccc(C(F)(F)F)c2)[C@@H]1C (relative stereo) :: 55 to 57 °C
CC(C)(OCc1n[nH]c2ccc([N+](=O)[O-])cc12)C(=O)O :: 210 °C
CCNC(=O)[C@H](C)C[C@H](O)[C@H](CC1CCCCC1)NC(=O)OC(C)(C)C :: 126 to 127 °C
Cc1ccccc1NC(=O)Nc1ccc(-c2c(CCO)sc3ncnc(N)c23)cc1 :: 159 to 162 °C
CCC(=CC(CNC(=O)c1ccncn1)=NO)C(C)[N+](=O)[O-] (centres undefined) :: 150 to 152 °C

Give the measured melting point of CC1(N2C(=O)c3cccc(NC(=O)c4cccc(Cl)c4)c3C2=O)CCC(=O)NC1=O (centres undefined) .
283 to 285 °C

Requested field: melting point. Item: Cc1c(O)cc(O)c(C)c1C(=O)OCC(Cl)(Cl)Cl
132 to 133 °C

Endpoint output: melting point of COc1ccc(C(c2ccc(F)cc2)C(c2ccc(OC)cc2)C(F)(F)F)cc1 (centres undefined) . Value?
132 to 135 °C

# get_value(readout='melting point', item= O=C(O)COc1cccc(-c2c3ccccc3c(Br)c3sc4ccccc4c23)c1 )
180 to 181 °C
